Tested System: Aryl hydrocarbon receptor (Homo sapiens)
Procedure Summary: qHTS assay to identify small molecule that activate the aryl hydrocarbon receptor (AhR) signaling pathway (AID 743085); also: nearly all actives have a fitted effect of over 15% in size;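 as to activation: HG2L7.5c1 human HepG2 liver cells with stably integrated DRE-driven firefly reporter; % is scaled to controls: 0 for no effect and ±100 for the full control effect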
Particulars: HepG2 AhR-luc (HG2L7.5c1), luciferase, 24 h; series mostly up to 70.3 µM
Inconclusive results are not listed. Activity calls are given as the source filed them. Calls follow the shape of the dose curve; as a rule, active = well fitted activation curve with a large enough effect in the repeat runs; inconclusive = weak or mixed curves; inactive = no such curve, though single readings can be large or run the other way.
Outcome (select one): active, inactive

Cc1nc2ccccc2c(=O)n1-c1ccccc1Cl; inactive
CCOP(=S)(OCC)Oc1ccc(S(C)=O)cc1 (centres undefined); active
CC(C)CCON=O; inactive

Query: Tell me the assay call for C=CCSSCC=C please.
Response: inactive

Query: Tell me the assay call for OCC1CO1 (centres undefined) please.
Response: inactive

Query: Tell me the assay call for Cc1ccc(N)c(C)c1 please.
Response: inactive

Query: Tell me the assay call for C#C[C@]1(O)CC[C@H]2[C@@H]3CCC4=CC(=O)CCC4=C3C=C[C@@]21CC please.
Response: inactive

Query: Tell me the assay call for COC(=O)Cc1ccccc1 please.
Response: inactive

###

Tested System: Acetylcholinesterase (Homo sapiens)
Procedure Summary: Acetylcholinesterase (AChE) small molecule antagonists: colormetric cell-based qHTS assay (AID 1347395); also: nearly all actives have a fitted effect of over 30% in size
Particulars: SH-SY5Y cells AChE activity, colorimetric (Ellman); series mostly up to 115 µM
Records with an inconclusive call do not appear. Activity calls are given as the source filed them. The call rests on the fitted dose curve.
Outcome (select one): Yes (active), No (inactive)

// below: answered molecules
Cc1ccccc1; No
C[C@H]1[C@@H]2Cc3ccc(O)cc3[C@@]1(C)CCN2C; Yes
CC(C)(C)N(NC(=O)c1ccc(Cl)cc1)C(=O)c1ccccc1; No
C[N+](C)(C)CCOC(=O)C(O)(c1ccccc1)c1ccccc1; No

Query: Tell me the assay call for CCOc1cccc(C2(N3CCN(c4ccccc4)CC3)CCC(C)CC2)c1 (stereo unspecified) please.
Response: No

Query: Tell me the assay call for CC1(C)CC(=O)CC(C)(C)N1[O] please.
Response: No

###

Tested System: Nuclear receptor subfamily 1 group I member 2 (Rattus norvegicus)
Procedure Summary: Rat pregnane X receptor (rPXR) activation by small molecules, qHTS assay (AID 1346983); also: % is scaled to controls: 0 for no effect and ±100 for the full control effect; nearly all actives have a fitted effect of over 20% in size
Particulars: rPXR luciferase reporter cells, One-Glo luminescence, 24 h; hits give high values
Inconclusive results are not listed.
Observed Property: max activation (%)
One number for each entry, in %.

c1ccc2c(c1)sc1ccccc12; -3.19
FC(F)OC(F)(F)C(F)Cl (stereo unspecified); -2.15
CC(C)CCON=O; -3.41

Please state, for each entry, its recorded max activation.
1. C[C@H](N)[C@H](O)c1ccc(O)c(O)c1
2. O=[N+]([O-])O[C@H]1CO[C@H]2[C@@H]1OC[C@H]2O[N+](=O)[O-]
3. O=C(N/N=C/c1ccc([N+](=O)[O-])o1)c1cc([N+](=O)[O-])cc([N+](=O)[O-])c1O

Response:
[-1.11, -0.141, 3.24]

###

Procedure Summary: qHTS assay to identify small molecule antagonists of the retinoid-related orphan receptor gamma (ROR-gamma) signaling pathway - cell viability counter screen (AID 1159520); also: nearly all actives have a fitted effect of over 50% in size
Particulars: Tet-on RORgamma CHO cells viability, ATP luminescence, 16 h; series mostly up to 92.4 µM
Records with an inconclusive call do not appear. The source made the active and inactive calls. The call rests on the fitted dose curve; in most records, active means well fitted cell-killing curve with a large enough effect in the repeat runs; inconclusive means weak or mixed curves, or effect the other way; inactive means no such curve, though single readings can be large or run the other way.
Outcome (select one): active, inactive

// below: answered compounds
CCSCc1ccccc1OC(=O)NC; inactive
C[N+](C)(C)CCOC(=O)C(O)(c1ccccc1)c1ccccc1; inactive
c1ccc2sc(SNC3CCCCC3)nc2c1; inactive

Query: Tell me the assay call for Cc1nnc(-c2ccccc2)c(=O)n1N please.
Response: inactive

Query: Tell me the assay call for CCC1(CCC(C)C)C(=O)NC(=O)NC1=O please.
Response: inactive

Query: Tell me the assay call for CCC(C)(C)c1ccc(O)c(C(C)(C)CC)c1 please.
Response: active

Query: Tell me the assay call for C[N+](C)(C)CC1CO1 (configuration not stated) please.
Response: inactive

###

Tested System: Cytochrome P450 2D6 (Homo sapiens)
Procedure Summary: Cytochrome P450 Family 2 Subfamily D Member 6 (CYP2D6) small molecule antagonists: luciferase reporter qHTS assay (AID 1671196); also: nearly all actives have a fitted effect of over 50% in size
Particulars: P450-Glo CYP2D6 enzyme assay, luciferin luminescence, 1 h; series mostly up to 115 µM
Results filed as inconclusive are left out. Active and inactive are the calls of the source. Calls follow the shape of the dose curve; as a rule, active = well fitted inhibition curve with a large enough effect in the repeat runs; inconclusive = weak or mixed curves; inactive = no such curve, though single readings can be large or run the other way.
Outcome (select one): active, inactive

// below: answered molecules
CCC(=O)O[C@@H]1C=C2CCC3C(CCC4(C)C3CC[C@@H]4OC(=O)CC)C2CC1 (stereo partly drawn); inactive
C#C[C@]1(O)CC[C@H]2[C@@H]3CCC4=CC(=O)CCC4=C3C=C[C@@]21CC; active
CCOC(C(=O)OCCN(C)C)(c1ccccc1)c1ccccc1; active
CC(O)CN1CCN(CC(=O)[O-])CCN(CC(=O)[O-])CCN(CC(=O)[O-])CC1.[Gd+3] (stereo not drawn); inactive
COC(=O)Cc1ccccc1; inactive
C=CCOC(=O)C(C)(C)OC(=O)c1cc(-n2c(=O)cc(C(F)(F)F)n(C)c2=O)ccc1Cl; active
CCOP(=S)(S)OCC; inactive
CCCCCCCCP(=O)(O)O; inactive

Query: Tell me the assay call for CC1(C)[C@H](C(=O)O[C@H](C#N)c2cccc(Oc3ccccc3)c2)[C@@H]1C=C(Br)Br please.
Response: inactive

Query: Tell me the assay call for CCCCCl please.
Response: active

Query: Tell me the assay call for N#CC(C#N)=Cc1ccc(O)c(O)c1 please.
Response: inactive

Query: Tell me the assay call for O=C(NC(=O)c1cc(F)c(F)cc1Cl)Nc1cc(F)ccc1N1CCC(C(=O)O)CC1 please.
Response: inactive

Query: Tell me the assay call for O=CC=O please.
Response: inactive

Query: Tell me the assay call for CCCC(C)(COC(N)=O)COC(=O)NC(C)C (stereo not drawn) please.
Response: inactive

Query: Tell me the assay call for Nc1ccc2c(c1)Cc1ccccc1-2 please.
Response: active

Query: Tell me the assay call for C=CCc1ccccc1O please.
Response: inactive

Query: Tell me the assay call for CON(C)C(=O)Nc1ccc(Cl)cc1 please.
Response: inactive

Query: Tell me the assay call for CN(C)N please.
Response: inactive

Query: Tell me the assay call for COc1ccc(C(=O)c2c(C)n(CCN3CCOCC3)c3ccccc23)cc1 please.
Response: active

Query: Tell me the assay call for CC[N+]1(CCOC(=O)C(O)(c2ccccc2)c2ccccc2)CCCCC1 please.
Response: active

Query: Tell me the assay call for O=C1NC(=O)C(=O)C(=O)N1 please.
Response: inactive

Query: Tell me the assay call for CC(C)c1ccc(NC(=O)N(C)C)cc1 please.
Response: inactive

Query: Tell me the assay call for CC(C)(C)N(NC(=O)c1ccc(Cl)cc1)C(=O)c1ccccc1 please.
Response: inactive

Query: Tell me the assay call for C=CC(=O)NC(C)(C)CC(C)=O please.
Response: active

###

Tested System: Cytochrome P450 3A4 (Homo sapiens) (UniProt P08684)
Sequence (P08684 whole entry, looked up): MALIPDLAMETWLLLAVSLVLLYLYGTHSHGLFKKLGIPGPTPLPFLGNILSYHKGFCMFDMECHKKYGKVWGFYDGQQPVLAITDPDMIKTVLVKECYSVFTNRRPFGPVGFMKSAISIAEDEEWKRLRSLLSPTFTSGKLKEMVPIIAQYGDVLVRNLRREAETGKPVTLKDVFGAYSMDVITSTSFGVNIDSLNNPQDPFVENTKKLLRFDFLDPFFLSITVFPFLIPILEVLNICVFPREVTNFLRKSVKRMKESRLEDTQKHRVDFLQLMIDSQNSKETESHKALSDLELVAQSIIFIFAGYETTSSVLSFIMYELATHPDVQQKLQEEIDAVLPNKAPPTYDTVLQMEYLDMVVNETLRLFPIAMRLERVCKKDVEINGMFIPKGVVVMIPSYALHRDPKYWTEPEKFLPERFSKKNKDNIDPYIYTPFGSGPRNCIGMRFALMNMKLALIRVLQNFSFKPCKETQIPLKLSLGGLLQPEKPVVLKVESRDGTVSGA
Procedure Summary: Cytochrome P450 Family 3 Subfamily A Member 4 (CYP3A4) small molecule antagonists: luciferase reporter qHTS assay (AID 1671201); also: % is scaled to controls: 0 for no effect and ±100 for the full control effect; nearly all actives have a fitted effect of over 50% in size
Particulars: P450-Glo CYP3A4 enzyme, luciferin luminescence, 1 h; series mostly up to 115 µM
Inconclusive results are not listed. Calls of active or inactive are those of the source. Calls follow the shape of the dose curve; as a rule, active = well fitted inhibition curve with a large enough effect in the repeat runs; inconclusive = weak or mixed curves; inactive = no such curve, though single readings can be large or run the other way.
Observed Property: outcome

C=C(Cl)Cl; inactive
O=C(CCl)CCl; inactive
CC(C)(C)NCC(O)c1ccccc1Cl (centres undefined); inactive
CCCC[P+](CC)(CCCC)CCCC (tested in a mixture with another compound); inactive
O=C(Cc1ccccc1)c1ccccc1; inactive

Please state, for each entry, its recorded outcome.
1. Cc1ccc2c(C)cccc2c1
2. CCc1cnc(C2=NC(C)(C(C)C)C(=O)N2)c(C(=O)O)c1 (centres undefined)
3. CON(C)C(=O)Nc1ccc(Cl)cc1
4. CN1CC[C@]23c4c5ccc(O)c4O[C@H]2[C@@H](O)CC[C@H]3[C@H]1C5
5. COc1ccccc1N1CCNCC1

Response:
inactive
inactive
inactive
inactive
inactive

Please state, for each entry, its recorded outcome.
1. O=C=NC1CCCCC1
2. O=C(Cc1ccccc1)OCCc1ccccc1
3. COC(=O)Cc1ccccc1

Response:
inactive
inactive
inactive

Query: Please indicate recorded outcome of OC[P+](CO)(CO)CO measured with Cytochrome P450 3A4 (Homo sapiens) (UniProt P08684).
Response: inactive

###

Procedure Summary: qHTS assay to identify small molecule agonists of the endoplasmic reticulum stress response signaling pathway - cell viability counter screen (AID 1159517); also: nearly all actives have a fitted effect of over 50% in size
Particulars: ESRE-bla HeLa viability, CellTiter-Glo luminescence, 5 h; series mostly up to 61 µM
Records with an inconclusive call do not appear. Activity calls are given as the source filed them. The call rests on the fitted dose curve.
Outcome (select one): yes (active), no (inactive)

// below: answered compounds
CCC[N+](CCC)(CCC)CCC; no
O=C(Cl)OCCOCCOC(=O)Cl; no
NCCc1cc(O)c(O)cc1O; no
O=C1NC(=O)C(=O)C(=O)N1; no
C[CH2][Hg][S]c1ccccc1C(=O)O; yes

Query: Tell me the assay call for CN1C[C@H](C(=O)N[C@]2(C)O[C@@]3(O)[C@@H]4CCCN4C(=O)[C@H](Cc4ccccc4)N3C2=O)C=C2c3cccc4[nH]cc(c34)C[C@H]21 please.
Response: no

Values compiled from PubChem BioAssay (Tox21).
